Tested on: Vaccinia virus
Measurement protocol: Antiviral activity against Vaccinia virus in HEL cells assessed as reduction of virus-induced cytopathogenicity
Assay type: functional
Condition label: Orthopoxvirus vaccinia
Metric name: MIC (µM)
# value in µM; strip the unit string

In the examples that follow, each entry is paired with its recorded MIC.
> print(dat)
                                     smiles  assayed.target  metric.name  reported
1  O=c1[nH]c(=O)n([C@H]2C[C@H](O)[C@@H](CO)O2)cc1/C=C/Br  Vaccinia virus          MIC         2
2  NC(=O)c1ncn([C@@H]2O[C@H](CO)[C@@H](O)[C@H]2O)n1  Vaccinia virus          MIC       150

# next molecule below
Q) // lookup MIC | system=Vaccinia virus | key= "Nc1nc2c(ncn2COC(CO)CO)c(=O)[nH]1"
A) 100
